biological target: Neu5Ac(a2-3)Gal(b1-3)GlcNAc(b1-3)Gal(b1-4)GlcNAc; assay: glycan array binding signal (z-score within array); higher = stronger binding; details: glycan notation: IUPAC condensed, linker removed
This excerpt belongs to a sample that is enriched for the strongest signals.
Recorded metric: glycan array binding signal (z-score)
Write the number on its own, no unit after it.

Inquiry: Name the recorded glycan array binding signal (z-score) for SJCP1531 (Schistosoma japonicum) (protein) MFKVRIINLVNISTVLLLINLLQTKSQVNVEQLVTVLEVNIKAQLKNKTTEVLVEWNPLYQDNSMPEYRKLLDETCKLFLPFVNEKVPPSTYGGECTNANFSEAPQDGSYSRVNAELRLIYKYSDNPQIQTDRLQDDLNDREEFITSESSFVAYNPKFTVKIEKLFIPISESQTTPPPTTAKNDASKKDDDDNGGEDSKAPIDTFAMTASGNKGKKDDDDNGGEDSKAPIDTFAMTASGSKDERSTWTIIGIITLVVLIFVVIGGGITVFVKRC .
Reply text: -0.438
